tested on: UACC-257; assay: NCI tumour cell line growth inhibition, 48 h
Activity calls are given as the source filed them. Rule as the data show it: active = GI50 up to about 1.1 µM and inactive = higher.
measure: GI50

molecule	target	measure	reportedResult
CC/N=C(\N)CSS(=O)(=O)O	UACC-257	GI50	> 100 µM (inactive)
COc1ccc(-n2c(C)nc3ccc(NC4OC(COC(C)=O)C(OC(C)=O)C(OC(C)=O)C4OC(C)=O)cc3c2=O)cc1 (centres undefined)	UACC-257	GI50	> 100 µM (inactive)
COc1ccc(/C=C2\Sc3nnc(-c4ccccc4)n3N=C2c2cc(F)c(Cl)cc2Cl)cc1OC	UACC-257	GI50	> 100 µM (inactive)
O=C(c1nc2ccc([N+](=O)[O-])cc2nc1O)C(O)c1ccc2c(c1)OCO2 (centres undefined)	UACC-257	GI50	> 100 µM (inactive)
COc1ccc(-c2ncnc(-c3ccc(OC)c(OC)c3)n2)cc1OC	UACC-257	GI50	> 100 µM (inactive)
CC(=N/NC(=S)N1CCCCC1)/C(=N\NC(=S)N1CCCCC1)c1ccccc1	UACC-257	GI50	1.95 µM (inactive)
CC1COS(=O)O1 (centres undefined)	UACC-257	GI50	> 100 µM (inactive)
COc1cc(CNc2ccc3nc4n(c(=O)c3c2)CCCCC4)cc(OC)c1OC	UACC-257	GI50	24.3 µM (inactive)

Lab note: next molecule to report on.
Query string: Request the reported GI50 associated with C/C(=N/OC(=O)c1cccc2c(=O)c3ccccc3[nH]c12)[C@H]1CC[C@H]2[C@@H]3CCC4=C/C(=N/OC(=O)c5cccc6c(=O)c7ccccc7[nH]c56)CC[C@]4(C)[C@H]3CC[C@]12C
Result string: 17.1 µM (inactive)

----------
test system: SF-295; experiment: NCI tumour cell line growth inhibition, 48 h
Calls of active or inactive are those of the source. Rule as the data show it: active = GI50 up to about 1.1 µM and inactive = higher.
A collection of compounds and their measured GI50

Examples with their reported GI50 follow.
                                   compound       reportedresult
0  O=C(/C=C/c1ccc(Cl)c(Cl)c1)c1cccc2ccccc12   11.4 µM (inactive)
1  CC1(C)[C@H](C(=O)O)N2C(=O)[C@@H](NS(=O)(=O)c3ccc([N+](=O)[O-])cc3)[C@H]2S1(=O)=O  > 100 µM (inactive)
2  COC(=O)C1=CO[C@@H](OC2OC(CO)C(O)C(O)C2O)[C@@H]2[C@H](C)[C@@H](O)[C@@H](O)[C@]12O (stereo partly specified)  > 100 µM (inactive)
3         CC(C)(C)OC(=O)NCCNC(=O)OCc1ccccc1  > 100 µM (inactive)
4  CCOC(=O)c1sc2c(c1O)c(=O)n(-c1ccccc1)c(=S)n2-c1ccccc1   35.5 µM (inactive)
5  Oc1c2ccccc2c2c3c(cccc13)N=N2 [SP-600125]   22.5 µM (inactive)
6  O=[N+]([O-])C(/C(Cl)=C(/Cl)N1CCOCC1)=C1\NCCO1  > 100 µM (inactive)
7  CN(N=O)N1C(=O)SCC(c2ccccc2)(c2ccccc2)C1=O   35.6 µM (inactive)

Query string: Lab request: please report GI50 under test system SF-295 for CC1(C)OC2OC(COC(=O)C(c3ccccc3)c3ccccc3)C3OC(C)(C)OC3C2O1 (stereo unspecified)
Result string: 10.7 µM (inactive)

Query string: What about this compound? CCCCCCCCCc1c(O)c(O)c(CCCCCCCCC)c(CCCCCCCCC)c1CCCCCCCCC
Result string: > 100 µM (inactive)

Query string: What about this compound? CCc1nc2c(n1CC)C(=O)c1ccccc1C2=O
Result string: 48.1 µM (inactive)
